Hello, the source for this data is ChEMBL document CHEMBL1909046, in case you need it.

target: UniProt:P19327; assay type: cell membranes, CHO-K1, Membrane; conditions: read-out: IC50
Sequence (P19327 whole entry): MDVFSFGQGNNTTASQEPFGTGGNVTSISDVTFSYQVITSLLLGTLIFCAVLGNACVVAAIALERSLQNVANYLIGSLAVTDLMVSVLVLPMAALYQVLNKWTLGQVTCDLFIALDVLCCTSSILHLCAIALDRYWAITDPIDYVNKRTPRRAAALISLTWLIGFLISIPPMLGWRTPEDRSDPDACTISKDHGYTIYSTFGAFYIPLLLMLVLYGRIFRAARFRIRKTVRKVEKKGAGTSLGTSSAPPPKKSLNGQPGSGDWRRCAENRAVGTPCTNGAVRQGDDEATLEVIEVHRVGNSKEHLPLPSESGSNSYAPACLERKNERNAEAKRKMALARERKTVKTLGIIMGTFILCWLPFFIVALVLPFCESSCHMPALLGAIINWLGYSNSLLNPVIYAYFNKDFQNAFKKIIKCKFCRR

molecule | testedOn | IC50
Fc1ccc(C(c2ccc(F)cc2)N2CCN(C/C=C/c3ccccc3)CC2)cc1 | UniProt:P19327 | 4280 nM
Clc1ccc(COC(Cn2ccnc2)c2ccc(Cl)cc2Cl)cc1 (centres undefined) | UniProt:P19327 | 16200 nM
CC(C)NCC(O)COc1cccc2[nH]ccc12 (centres undefined) | UniProt:P19327 | 48 nM
Cc1cc2c(OCC(CNC(C)(C)C)OC(=O)c3ccccc3)cccc2[nH]1 (centres undefined) | UniProt:P19327 | 267 nM
C[C@@H](CO)NC(=O)[C@@H]1C=C2c3cccc4[nH]cc(c34)C[C@H]2N(C)C1 | UniProt:P19327 | 8.13 nM
CO[C@@H]1[C@@H](OC)[C@H](C)[C@@](O)(CC(=O)O)O[C@H]1[C@H](C)[C@H]1O[C@@]2(CC[C@@](C)([C@H]3CC[C@@](C)([C@@H]4O[C@@H]([C@H]5O[C@](C)(O)[C@H](C)C[C@@H]5C)C[C@@H]4O[C@@H]4C[C@H](OC)[C@@H](OC)[C@H](C)O4)O3)O2)C[C@H](O)[C@H]1C | UniProt:P19327 | 7.83 nM
Brc1c(NC2=NCCN2)ccc2nccnc12 | UniProt:P19327 | 2550 nM
CCCNCC(O)COc1ccccc1C(=O)CCc1ccccc1 (centres undefined) | UniProt:P19327 | 1640 nM
COc1cc(N)c(Cl)cc1C(=O)NC1CCN(CCCOc2ccc(F)cc2)CC1OC (centres undefined) [CISAPRIDE] | UniProt:P19327 | 2830 nM

---

biological target: UniProt:P19327; assay type: cell membranes, CHO-K1, Membrane; details: cho-k1
assayEndpoint: IC50

compound | assayEndpoint | result
CCN(CC)CC(=O)Nc1c(C)cccc1C | IC50 | Not Active
O=C(c1ccccc1C(F)(F)F)N1CCC(Cc2ccccc2)CC1 | IC50 | Not Active
C=CCc1ccc(O)c(OC)c1 | IC50 | Not Active
NCCCC(O)(P(=O)(O)O)P(=O)(O)O | IC50 | Not Active
Clc1ccccc1CN1CCc2sccc2C1 | IC50 | Not Active
C#C[C@]1(OC(C)=O)CC[C@H]2[C@@H]3CCC4=C[C@@H](OC(C)=O)CC[C@@H]4[C@H]3CC[C@@]21C [ETHYNODIOL DIACETATE] | IC50 | Not Active
O=C1O[C@H]([C@@H](O)CO)C(O)=C1O | IC50 | Not Active
Oc1c(Cl)cc(Cl)c(Cl)c1Cc1c(O)c(Cl)cc(Cl)c1Cl | IC50 | Not Active
Nc1cc(N2CCCCC2)nc(N)[n+]1[O-] | IC50 | Not Active
CC[C@@H](C(=O)[C@@H](C)[C@@H](O)[C@H](C)[C@@H]1O[C@@H]([C@@H](CC)C(=O)O)CC[C@@H]1C)[C@H]1O[C@]2(C=C[C@@H](O)[C@]3(CC[C@@](C)([C@H]4CC[C@](O)(CC)[C@H](C)O4)O3)O2)[C@H](C)C[C@@H]1C | IC50 | Not Active
NC1CCN(c2nc3c(cc2F)c(=O)c(C(=O)O)cn3-c2ccc(F)cc2F)C1 (centres undefined) | IC50 | Not Active
Cn1c(=O)c2nc[nH]c2n(C)c1=O.O | IC50 | Not Active
O=c1cnn([C@@H]2O[C@H](CO)[C@@H](O)[C@H]2O)c(=O)[nH]1 | IC50 | Not Active
Nc1ccn([C@@H]2O[C@H](CO)[C@@H](O)C2(F)F)c(=O)n1 | IC50 | Not Active
CC(C)(C)NC(=O)[C@H]1CC[C@H]2[C@@H]3CC[C@H]4NC(=O)C=C[C@]4(C)[C@H]3CC[C@]12C [FINASTERIDE] | IC50 | Not Active
CC(=O)[C@@]1(O)CC[C@H]2[C@@H]3CCC4=CC(=O)CC[C@]4(C)[C@H]3CC[C@@]21C [HYDROXYPROGESTERONE] | IC50 | Not Active
CC(=O)Oc1ccc(C(c2ccc(OC(C)=O)cc2)c2ccccn2)cc1 | IC50 | Not Active
C[n+]1ccc(-c2cc[n+](C)cc2)cc1.[Cl-].[Cl-] [PARAQUAT DICHLORIDE] | IC50 | Not Active
CC(=O)[C@H]1[C@H](C#N)C[C@H]2[C@@H]3CC=C4C[C@@H](O)CC[C@]4(C)[C@H]3CC[C@@]21C | IC50 | Not Active
CC(C)Oc1ccc2c(=O)c(-c3ccccc3)coc2c1 | IC50 | Not Active
C#CC1(O)CC[C@H]2[C@@H]3CCC4=CC(=O)CC[C@@H]4[C@H]3CC[C@@]21CC (some centres undefined) | IC50 | Not Active
CC(C)=CCC/C(C)=C/CO | IC50 | Not Active
COc1cc([C@@H]2c3cc4c(cc3[C@@H](O[C@@H]3O[C@@H]5CO[C@@H](C)O[C@H]5[C@H](O)[C@H]3O)[C@H]3COC(=O)[C@H]23)OCO4)cc(OC)c1O [ETOPOSIDE] | IC50 | Not Active
N=C(N)NC(=O)Cc1c(Cl)cccc1Cl | IC50 | Not Active
COC1=C(OC)C(=O)C(CCCCCCCCCCO)=C(C)C1=O | IC50 | Not Active
CN(C/C=C/C#CC(C)(C)C)Cc1cccc2ccccc12 | IC50 | Not Active
CC(C(=O)O)c1cccc(Oc2ccccc2)c1 (centres undefined) | IC50 | Not Active
NNc1nncc2ccccc12 [HYDRALAZINE] | IC50 | Not Active
CN(C)CC[C@@H](c1ccc(Cl)cc1)c1ccccn1 | IC50 | Not Active
COc1cc2nc(N3CCN(C(=O)c4ccco4)CC3)nc(N)c2cc1OC | IC50 | Not Active
O=C(O)c1cn(-c2ccc(F)cc2)c2cc(N3CCNCC3)c(F)cc2c1=O | IC50 | Not Active
CCn1cc(C(=O)O)c(=O)c2cnc(N3CCCC3)nc21 | IC50 | Not Active
COC(=O)Nc1nc2ccc(C(=O)c3cccs3)cc2[nH]1 | IC50 | Not Active
Cc1c(C)c2c(c(C)c1O)CCC(C)(CN1CCN(c3cc(N4CCCC4)nc(N4CCCC4)n3)CC1)O2 (centres undefined) | IC50 | Not Active

---

molecular target: Muscarinic acetylcholine receptor M5 (Homo sapiens, UniProt P08912); format: cell membranes, CHO-K1, Membrane; conditions: cho-k1; note: in other assays of this panel Not Active means under 50% inhibition at 10 µM
Sequence (P08912 whole entry): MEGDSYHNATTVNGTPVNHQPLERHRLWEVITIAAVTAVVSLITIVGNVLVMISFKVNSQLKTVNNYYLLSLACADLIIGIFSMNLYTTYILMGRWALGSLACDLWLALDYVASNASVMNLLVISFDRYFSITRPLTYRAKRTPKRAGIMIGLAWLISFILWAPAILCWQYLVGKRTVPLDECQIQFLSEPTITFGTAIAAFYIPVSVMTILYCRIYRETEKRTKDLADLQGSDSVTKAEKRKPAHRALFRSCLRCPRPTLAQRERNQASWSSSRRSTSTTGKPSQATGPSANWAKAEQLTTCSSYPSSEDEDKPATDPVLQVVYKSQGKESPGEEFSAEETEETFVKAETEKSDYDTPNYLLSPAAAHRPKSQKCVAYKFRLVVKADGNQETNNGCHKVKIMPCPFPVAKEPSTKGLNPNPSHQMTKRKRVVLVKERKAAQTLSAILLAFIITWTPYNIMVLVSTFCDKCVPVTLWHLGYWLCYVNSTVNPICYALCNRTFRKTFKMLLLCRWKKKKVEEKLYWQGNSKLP

substance | IC50
GENTAMICIN | Not Active
MANGANESE CHLORIDE ANHYDROUS | Not Active
NYSTATIN | Not Active
AURANOFIN | Not Active
GRAMICIDIN | Not Active
GADOPENTETATE DIMEGLUMINE | Not Active
SODIUM ORTHOVANAD | Not Active

---

assay: DRUGMATRIX: Potassium Channel [KATP] radioligand binding (ligand: [3H] Glyburide); type: cell membranes, Membrane; settings: hit-t15; Not Active = under 50% inhibition at 10 µM
assayEndpoint: Ki

substance | result
NYSTATIN | Not Active
SODIUM ORTHOVANAD | Not Active
GADOPENTETATE DIMEGLUMINE | Not Active
GRAMICIDIN | Not Active
MANGANESE CHLORIDE ANHYDROUS | Not Active
GENTAMICIN | Not Active
AURANOFIN | Not Active

---

target: Cytochrome P450 2E1 (Homo sapiens); details: bti-tn-5b1-4; note: in other assays of this panel Not Active means under 50% inhibition at 10 µM
Sequence (P05181 whole entry): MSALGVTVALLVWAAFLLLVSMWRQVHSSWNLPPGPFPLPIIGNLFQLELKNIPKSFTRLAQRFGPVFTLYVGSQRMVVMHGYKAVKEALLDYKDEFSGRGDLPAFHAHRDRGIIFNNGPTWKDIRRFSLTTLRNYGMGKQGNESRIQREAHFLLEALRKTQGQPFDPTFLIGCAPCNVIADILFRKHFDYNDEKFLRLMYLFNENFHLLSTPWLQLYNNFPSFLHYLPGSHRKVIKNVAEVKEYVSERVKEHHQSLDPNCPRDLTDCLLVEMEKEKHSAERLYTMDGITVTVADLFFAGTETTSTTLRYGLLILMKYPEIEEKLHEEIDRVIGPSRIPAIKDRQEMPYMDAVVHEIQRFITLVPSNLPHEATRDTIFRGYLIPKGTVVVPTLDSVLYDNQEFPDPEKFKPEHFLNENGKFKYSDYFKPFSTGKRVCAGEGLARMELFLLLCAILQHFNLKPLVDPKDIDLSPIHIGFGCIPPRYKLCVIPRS

substance | testedOn | IC50
NYSTATIN | Cytochrome P450 2E1 (Homo sapiens) | Not Active
MANGANESE CHLORIDE ANHYDROUS | Cytochrome P450 2E1 (Homo sapiens) | Not Active
SODIUM ORTHOVANAD | Cytochrome P450 2E1 (Homo sapiens) | Not Active
GENTAMICIN | Cytochrome P450 2E1 (Homo sapiens) | Not Active
GADOPENTETATE DIMEGLUMINE | Cytochrome P450 2E1 (Homo sapiens) | Not Active
AURANOFIN | Cytochrome P450 2E1 (Homo sapiens) | Not Active
GRAMICIDIN | Cytochrome P450 2E1 (Homo sapiens) | Not Active

---

assay: DRUGMATRIX: Interleukin IL-1 radioligand binding (ligand: [125I] interleukin 1beta); type: cell membranes, Membrane; conditions: nih3t3; Not Active = under 50% inhibition at 10 µM

compound | Ki
CCCCOc1cc(CC2CNC(=O)N2)ccc1OC (stereo not drawn) | Not Active
C[n+]1ccc(-c2cc[n+](C)cc2)cc1.[Cl-].[Cl-] [PARAQUAT DICHLORIDE] | Not Active
CO[C@H]1/C=C/O[C@@]2(C)Oc3c(C)c(O)c4c(O)c(c(/C=N/N5CCN(C6CCCC6)CC5)c(O)c4c3C2=O)NC(=O)/C(C)=C\C=C\[C@H](C)[C@H](O)[C@@H](C)[C@@H](O)[C@@H](C)[C@H](OC(C)=O)[C@@H]1C | Not Active
